Assay notes: IUF_NPC2-5_cytotoxicity_120hr: Cytotoxicity Assessment at 120 hours in the Leibniz Research Institute for Environmental Medicine (IUF) Neural Progenitor Cell Migration and Differentiation Assay (NPC2-5) (AID 2284307)
Active and inactive are the calls of the source. How the source made its calls: active means hit-call score of the fitted dose curve at least 0.9, where 1 is the maximum; inconclusive means response in the unintended direction; inactive means score below 0.9.
Please answer using one outcome listed in 1 for active, -1 for inactive

Field: example entries. Status: answers known.
[
  {
    "Compound": "BrC1CC(Br)CC(Br)CC(Br)CC(Br)CC(Br)C1 (stereo unspecified)",
    "Class label": 1
  },
  {
    "Compound": "CCc1ccccc1",
    "Class label": -1
  },
  {
    "Compound": "CCCCCC=C(C)C(CC)CCO (stereo unspecified)",
    "Class label": -1
  },
  {
    "Compound": "C[C@@H]1CC[C@@H](C(C)(C)O)[C@H](O)C1",
    "Class label": -1
  },
  {
    "Compound": "CC(CNC(=S)[S-])NC(=S)[S-].[Zn+2] (stereo unspecified)",
    "Class label": 1
  }
]

Now look at this entry.
Ask: GET /call?item= C[C@@H]1CCO[C@H]2Cn3cc(C(=O)NCc4ccc(F)cc4F)c(=O)c(O)c3C(=O)N12 returns the recorded outcome of this test.
Reply: -1

* * *

Assay notes: IUF_NPC2a_radial_glia_migration_120hr: Leibniz Research Institute for Environmental Medicine (IUF) 120-hour Neural Progenitor Cell Migration Assay for Radial Glia Migration (NPC2a) (AID 2284298)
Activity calls are given as the source filed them. How the source made its calls: active means hit-call score of the fitted dose curve at least 0.9, where 1 is the maximum; inactive means score below 0.9.
Please answer using one outcome listed in active, inactive

Ask: GET /call?item= CCCCCC(C)(CC)C(=O)NC (stereo unspecified) returns the recorded outcome of this test.
Reply: inactive

Ask: GET /call?item= F returns the recorded outcome of this test.
Reply: inactive

Ask: GET /call?item= CN(C)CCCn1cc(C2=C(c3c[nH]c4ccccc34)C(=O)NC2=O)c2ccccc21 returns the recorded outcome of this test.
Reply: active

Ask: GET /call?item= O=C1CC2(CCCC2)CC(=O)N1CCCCN1CCN(c2ncccn2)CC1 returns the recorded outcome of this test.
Reply: inactive

Ask: GET /call?item= C[C@@H]1CCO[C@H]2Cn3cc(C(=O)NCc4ccc(F)cc4F)c(=O)c(O)c3C(=O)N12 returns the recorded outcome of this test.
Reply: inactive

Ask: GET /call?item= Cc1[nH]n(C)c(=O)c1C(=O)c1ccc(C(F)(F)F)cc1S(C)(=O)=O returns the recorded outcome of this test.
Reply: inactive

Ask: GET /call?item= CC(C)c1nn(C(=O)NC(C)(C)C)c(=O)n1N returns the recorded outcome of this test.
Reply: inactive

Ask: GET /call?item= CCCCOCCOP(=O)(O)OCCOCCCC returns the recorded outcome of this test.
Reply: inactive

Ask: GET /call?item= CCc1ccccc1 returns the recorded outcome of this test.
Reply: inactive

Ask: GET /call?item= CC(=O)N[C@@H](CC(=O)O)C(=O)O returns the recorded outcome of this test.
Reply: inactive

Ask: GET /call?item= C[C@@H]1CC[C@@H](C(C)(C)O)[C@H](O)C1 returns the recorded outcome of this test.
Reply: inactive

* * *

Assay notes: IUF_NPC2-5_cytotoxicity_72hr: Cytotoxicity Assessment at 72 hours in the Leibniz Research Institute for Environmental Medicine (IUF) Neural Progenitor Cell Migration and Differentiation Assay for Cytotoxicity (NPC2-5) (AID 2284306);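 further: LDH release into supernatant measured by resorufin fluorescence marking membrane damage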
Inconclusive results are not listed. Active and inactive are the calls of the source. Rule for the calls: active = hit-call score of the fitted dose curve at least 0.9, where 1 is the maximum; inconclusive = response in the unintended direction; inactive = score below 0.9.
Please answer using one outcome listed in active, inactive

Field: example entries. Status: answers known.
[
  {
    "Compound": "CCCCOCCOP(=O)(O)OCCOCCCC",
    "Class label": "inactive"
  },
  {
    "Compound": "O=C1CC2(CCCC2)CC(=O)N1CCCCN1CCN(c2ncccn2)CC1",
    "Class label": "inactive"
  },
  {
    "Compound": "CCCCCC=C(C)C(CC)CCO (centres undefined)",
    "Class label": "inactive"
  },
  {
    "Compound": "C[C@@H]1CC[C@@H](C(C)(C)O)[C@H](O)C1",
    "Class label": "inactive"
  },
  {
    "Compound": "F",
    "Class label": "inactive"
  },
  {
    "Compound": "CC(C)c1nn(C(=O)NC(C)(C)C)c(=O)n1N",
    "Class label": "inactive"
  },
  {
    "Compound": "C[C@@H]1CCO[C@H]2Cn3cc(C(=O)NCc4ccc(F)cc4F)c(=O)c(O)c3C(=O)N12",
    "Class label": "inactive"
  },
  {
    "Compound": "CC(CNC(=S)[S-])NC(=S)[S-].[Zn+2] (centres undefined)",
    "Class label": "active"
  }
]

Now look at this entry.
Ask: GET /call?item= CCc1ccccc1 returns the recorded outcome of this test.
Reply: inactive

* * *

Target or test system: PGR (gene 5241)
Assay notes: TOX21_PR_BLA_Followup_Antagonist_ratio: Tox21 HEK293 Progesterone Receptor (PR) Antagonism Beta-lactamase Follow-Up Assay, Ratio (AID 2283934);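 further: PR-UAS-bla HEK293T cells stimulated with 1 nM R5020 agonist for 16 hr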
Activity calls are given as the source filed them. Rule for the calls: active = hit-call score of the fitted dose curve at least 0.9, where 1 is the maximum; inconclusive = response in the unintended direction; inactive = score below 0.9.
Parameter: AC50

[
  {
    "Molecule": "CCC(=O)Oc1ccc2c(c1)CC[C@@H]1[C@@H]2CC[C@@]2(C)[C@H]1C[C@@H](OC(=O)CC)[C@@H]2OC(=O)CC",
    "AC50": "2.81 µM (active)"
  },
  {
    "Molecule": "CN1CCN(C2=Nc3cc(F)ccc3Cc3ccccc32)CC1",
    "AC50": "inactive"
  },
  {
    "Molecule": "CC(C)(C)C(O)/C=C/c1ccc2c(c1)OCO2 (stereo not drawn)",
    "AC50": "inactive"
  },
  {
    "Molecule": "CCCOc1ccc2c(c1)CC[C@@H]1[C@@H]2CC[C@]2(C)C(OC)CC[C@@H]12 (stereo partly drawn)",
    "AC50": "12.8 µM (active)"
  },
  {
    "Molecule": "COC(=O)C1=C(C)NC(C)=C(C(=O)OC(C)C)C1c1cccc2nonc12 (stereo not drawn)",
    "AC50": "19.4 µM (active)"
  }
]

Ask: Recall and state the measured AC50 for CC(=O)OCC(=O)[C@@]1(O)[C@H](C)C[C@H]2[C@@H]3CCC4=CC(=O)C=C[C@]4(C)[C@@]3(F)[C@@H](O)C[C@@]21C .
Reply: inactive

Ask: Recall and state the measured AC50 for CCC(=O)O[C@]1(C(=O)COC)[C@@H](C)C[C@H]2[C@@H]3CCC4=CC(=O)C=C[C@]4(C)C3(F)[C@@H](O)C[C@@]21C (stereo partly drawn) .
Reply: inactive

Ask: Recall and state the measured AC50 for CC(=O)OCC(=O)[C@H]1CC[C@H]2[C@@H]3CCC4=CC(=O)CC[C@]4(C)[C@H]3CC[C@]12C .
Reply: inactive

* * *

Assay notes: UKN4_HCS_LUHMES_neurite_outgrowth: University of Konstanz (UKN) Leist Lab Neurite Outgrowth Assay in human LUHMES cells (UKN4) (AID 2284206)
Measurement setup: actives raise or lower the signal
The source made the active and inactive calls. The calls were made as follows: active = hit-call score of the fitted dose curve at least 0.9, where 1 is the maximum; inactive = score below 0.9.
Please answer using one outcome listed in Yes for active, No for inactive

[
  {
    "Chemical smiles": "Brc1cc(Br)c(Oc2cc(Br)c(Br)cc2Br)cc1Br",
    "Class label": "No"
  }
]

Ask: GET /call?item= CC(=O)OC/N=[N+](\C)[O-] returns the recorded outcome of this test.
Reply: Yes

Ask: GET /call?item= O=C1CC2(CCCC2)CC(=O)N1CCCCN1CCN(c2ncccn2)CC1 returns the recorded outcome of this test.
Reply: Yes

Ask: GET /call?item= O.O=S(=O)([O-])[O-].[Mn+2] returns the recorded outcome of this test.
Reply: No

Ask: GET /call?item= Cc1ccccc1 returns the recorded outcome of this test.
Reply: No

* * *

Assay notes: CCTE_Shafer_MEA_dev_active_electrodes_number: CCTE's Neural Network Formation Assay for Number of Active Electrodes, Shafer Lab (AID 2284040);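 further: potency for loss of active electrodes versus DMSO so lower counts are hits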
Procedure: CCTE_Shafer_MEA_dev assay is conducted using Axion Biosystems 48 well microelectrode array (MEA) plates and Maestro recording system. Each well of the MEA plate contains a grid of 16 microelectrodes embedded in the culture surface. Electrically active cells, such as neurons, can be cultured over the electrodes, and electrical activity in these cells can be recorded extracellularly. […]
Results filed as inconclusive are left out. Calls of active or inactive are those of the source. How the source made its calls: active means hit-call score of the fitted dose curve at least 0.9, where 1 is the maximum; inconclusive means response in the unintended direction; inactive means score below 0.9.
Here, each record is paired with measured AC50 data.

Below, each entry is followed by its recorded AC50 result.
[
  {
    "Compound": "BrC1CC(Br)CC(Br)CC(Br)CC(Br)CC(Br)C1 (stereo not given)",
    "Observed value": "6.75 µM (active)"
  },
  {
    "Compound": "O=C1CC2(CCCC2)CC(=O)N1CCCCN1CCN(c2ncccn2)CC1",
    "Observed value": "9.97 µM (active)"
  },
  {
    "Compound": "[O]=[V]([OH])([OH])[OH]",
    "Observed value": "15 µM (active)"
  }
]

We now examine a further compound.
Ask: Recall and state the measured AC50 for C[C@@H]1CCO[C@H]2Cn3cc(C(=O)NCc4ccc(F)cc4F)c(=O)c(O)c3C(=O)N12 .
Reply: 1.46 µM (active)
